- Test system: NCI-H446 (Small Cell Lung Carcinoma);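 note: after 72 h of two-drug dosing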
- ASSAY_SUMMARY: Bliss excess, mean over the matrix (fraction); higher = more synergy
QUANTITY_MEASURED: Bliss excess

MOLECULE	TEST_VALUE
COc1cccc(OCCCN)c1-c1cc(Nc2cnc(C#N)cn2)n[nH]1 [Prexasertib] + CCc1c2c(nc3ccc(O)cc13)-c1cc3c(c(=O)n1C2)COC(=O)[C@]3(O)CC [SN-38] (first compound max 1 µM, 7x7, partner max 0.3 µM)	0.0756
COc1nnc2ccc(N3CCC(c4ccc(OCCN5CCN(C)C(=O)[C@H]5C)cc4)CC3)nn12 [AZD5153] + CCN(CCO)CCCOc1ccc2c(Nc3cc(CC(=O)Nc4cccc(F)c4)[nH]n3)ncnc2c1 [AZD2811] (first compound max 1 µM, 7x7, partner max 1 µM)	-0.0481
C=CCn1c(=O)c2cnc(Nc3ccc(N4CCN(C)CC4)cc3)nc2n1-c1cccc(C(C)(C)O)n1 [AZD1775] + C1CN(CCC1(C(=O)N[C@@H](CCO)C2=CC=C(C=C2)Cl)N)C3=NC=NC4=C3C=CN4 [Capivasertib] (first compound max 3 µM, partner max 3 µM)	0.0213

All values here come from the supplement of paper PMC11061612.
